Item-by-item account of IC50
biological target: human P2X3 receptor (Homo sapiens (Human), UniProt P56373); assay: Evaluation of human P2X3 receptor inhibitory activity (Fluo-3 calcium fluorescence, FDSS 3000, ATP stimulation); format: cell-based; conditions: C6BU-1 cells stably expressing human P2X3 receptor, Fluo-3 fluorescence, FDSS 3000;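 note: stimulus was 50 nM ATP with fluorescence followed for 3 min, and the response per well was peak post-ATP fluorescence divided by the reading at measurement start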
Sequence (P56373 whole entry): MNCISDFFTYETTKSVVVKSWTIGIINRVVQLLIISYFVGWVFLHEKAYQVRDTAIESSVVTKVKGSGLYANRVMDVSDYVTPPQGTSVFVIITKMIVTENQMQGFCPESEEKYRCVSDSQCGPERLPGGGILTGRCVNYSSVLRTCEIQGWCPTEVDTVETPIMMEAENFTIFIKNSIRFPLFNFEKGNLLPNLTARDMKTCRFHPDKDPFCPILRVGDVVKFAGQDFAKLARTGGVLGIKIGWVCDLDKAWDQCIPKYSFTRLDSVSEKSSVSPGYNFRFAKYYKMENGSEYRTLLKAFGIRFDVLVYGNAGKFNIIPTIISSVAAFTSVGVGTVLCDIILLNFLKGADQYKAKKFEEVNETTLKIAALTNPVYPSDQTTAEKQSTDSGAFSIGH
attributeMeasured: IC50

>>> df
                                 chemsmiles  result
0  CCc1nc2ccc(/N=c3\[nH]c(=O)n(CCCC(N)=O)c(=O)n3Cc3ccc(Cl)cc3)cc2s1    5 nM
1  CC(C)c1nc2ccc(/N=c3\[nH]c(=O)n([C@@H](C)[C@@H](C)C(=O)O)c(=O)n3Cc3ccc(Cl)cc3)cc2s1   14 nM
2  Cc1ccc(Oc2ccc(/N=c3\[nH]c(=O)n(CCCO)c(=O)n3Cc3ccc(Cl)cc3)cc2)cn1    4 nM
3  Cc1ccc(Cn2c(=O)n(C[C@H](C)C(=O)O)c(=O)[nH]/c2=N\c2ccc(OC(F)(F)F)c(Cl)c2)cc1   67 nM
4  COC(=O)[C@H](C)[C@H](C)n1c(=O)[nH]/c(=N\c2ccc(OCC3CC3)c(Cl)c2)n(Cc2ccc(C)cc2)c1=O   47 nM
5  Cc1ccc(Cn2c(=O)n(CCC(=O)O)c(=O)[nH]/c2=N\c2ccc3nc(C(C)C)sc3c2)cc1   31 nM
6  Cc1ccc(Cn2c(=O)n(C[C@@H](C)C(=O)O)c(=O)[nH]/c2=N\c2ccc(OC(C)C)cc2)cc1  152 nM
